Data origin, for the record: patent US20240317858A1

biological target: T1, Human CD3εδ Fc heterodimer (Hu CD3ε Fc + CD3δ Fc-HIS) (human, UniProt P07766 22-126; P04234 22-100); assay: BLI (Octet), Fab monovalent, pH 6.0
T1 construct: range 22-126;range 22-100; Made in HEK 293 cells with a heterologous signal peptide; also called Hu CD3εδ-Fc; CD3εδ Fc-HIS heterodimer; not shown: Fc; Fc followed by HIS tag
T1 sequence (P07766 22-126, stated change not applied, form in doubt, chain 1 of 2): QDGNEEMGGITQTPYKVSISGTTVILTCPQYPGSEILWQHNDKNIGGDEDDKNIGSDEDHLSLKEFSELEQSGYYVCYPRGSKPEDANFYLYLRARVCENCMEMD
T1 sequence (P04234 22-100, stated change not applied, form in doubt, chain 2 of 2): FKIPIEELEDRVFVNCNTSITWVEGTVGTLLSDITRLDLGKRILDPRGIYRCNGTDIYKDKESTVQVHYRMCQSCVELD
measurementKind: Kd (nM)
Form entry: value (nM) — number only.

Input line: Param item = Antibody No. V013 (ADI-70330) Fab (Fab, V domains shown, Fab by papain digestion of the IgG1) VH: QVQLVQSGAEVKKPGASVKVSCKASGFNIDDYYMHWVRQAPGQRLEWIGWIDLENANTVDDAKFQGRVTITRDTSASTAYMELSSLRSEDTAVYYCARDAYGRYFYDVWGQGTLVTVSS VL: DIVMSQSPDSLAVSLGERATINCKSSQSLLNARTGKNYLAWYQQKPGQPPKLLIYWASTRSSGVPDRFSGSGSGTDFTLTISSLQAEDVAVYYCVQSYFRRTFGGGTKVEIK ; retrieve measured Kd.
Output line: 1.6

Input line: Now consider Antibody No. A004 (ADI-26920) Fab (Fab, V domains shown, Fab by papain digestion of the IgG1) VH: QVQLVQSGAEVKKPGASVKVSCKASGFNIKDYYMHWVRQAPGQRLEWMGWIDLENANTIYDAKFQGRVTITRDTSASTAYMELSSLRSEDTAVYYCGRDAYGRYFYDVWGQGTLVTVSS VL: DIVMTQSPDSLAVSLGERATINCKSSQSLLNARTGKNYLAWYQQKPGQPPKLLIYWASTRESGVPDRFSGSGSGTDFTLTISSLQAEDVAVYYCKQSYSLRTFGGGTKVEIK .
Output line: 29

Input line: Now consider Antibody No. A005 (ADI-26921) Fab (Fab, V domains shown, Fab by papain digestion of the IgG1) VH: QVQLVQSGAEVKKPGASVKVSCKASGFNIKDYYMHWVRQAPGQRLEWMGWIDLEEGNTIYDAKFQGRVTITRDTSASTAYMELSSLRSEDTAVYYCARDAYGRYFYDVWGQGTLVTVSS VL: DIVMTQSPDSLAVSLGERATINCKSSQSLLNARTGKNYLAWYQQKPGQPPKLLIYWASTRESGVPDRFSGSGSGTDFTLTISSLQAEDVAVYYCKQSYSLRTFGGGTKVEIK .
Output line: 35
